All values here come from patent US10005735B2.

- target.desc: Csn5 (Homo sapiens (Human), UniProt Q92905)
- experimental.details: Csn5 activity assay (fluorescence polarization, SCF^skp2-Nedd8OG, COP9 Signalosome Complex)
- condition.context: Table 2
- Description: Csn5 Activity Assay. […] In brief, a fluorescent substrate termed SCF^skp2-Nedd8OG was produced to measure CSN5 activity in vitro. This assay measures the decrease in fluorescence polarization due to the decrease in apparent molecular weight of Oregon Green (OG) fluorophore (from the ˜175 kDa substrate to ˜9 kDa Nedd8OG) as a result of Csn5-mediated cleavage of the isopeptide bond that links Nedd8OG to SCF^Skp2. […]
parameter: IC50 (µM)
One number for each entry, in µM.

Field: example entries. Status: answers known.
- record.smiles: "NC(=O)c1cnc2c(SSc3cccc4cc(C(N)=O)cnc34)cccc2c1"
  target.desc: "Csn5 (Homo sapiens (Human), UniProt Q92905)"
  IC50 (µM): 15
- record.smiles: "O=C(NCc1ccncc1)c1cnc2c(SSc3cccc4cc(C(=O)NCc5ccncc5)cnc34)cccc2c1"
  target.desc: "Csn5 (Homo sapiens (Human), UniProt Q92905)"
  IC50 (µM): 7
- record.smiles: "O=C(CCCC[C@@H]1SC[C@@H]2NC(=O)N[C@@H]21)NCCOCCOCCOCCNC(=O)c1cnc2c(S)cccc2c1"
  target.desc: "Csn5 (Homo sapiens (Human), UniProt Q92905)"
  IC50 (µM): 13.8

Field IC50 (entry `O=C(NCCN1CCOCC1)c1cnc2c(SSc3cccc4cc(C(=O)NCCN5CCOCC5)cnc34)cccc2c1` ) reads 99
